Provenance of the data: the supplement of paper PMC9233669

System: biotinyl-Trp-oxazolone
method.description: self-aminoacylation, catalytic enhancement (BWO) (fold over background); higher = more active; k-Seq, kA / k0A0; sequences stand for … in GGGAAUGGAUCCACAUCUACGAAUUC…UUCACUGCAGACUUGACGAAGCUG
Fewer inactive variants are shown than the library holds.
measurement.type: self-aminoacylation
// print number alone

Below, each entry is followed by its recorded self-aminoacylation result.
> print(dat)
                           sequence.content  observed.result
1  AUUACCCUGAACAUCGAGUGA [Fam2.1 aminoacylation ribozyme variant]             8.05
2  CUAUUUCAAACAAUGGGUCUG [Fam1A.1 aminoacylation ribozyme variant]            0.802
3  CCACUCUUCAAGGAAUCGGUC [Fam1B.1 aminoacylation ribozyme variant]             3.24
4  AAGUUGGCUAACAGUCGCAAG [Fam3.1 aminoacylation ribozyme variant]             2.26
5  AUUCACCUCGGUCAUCGGAUG [Fam2.2 aminoacylation ribozyme variant]            0.751
6  CUAGUUCAAACAAUCGGUUUG [Fam1A.1 aminoacylation ribozyme variant]             3.41
7  CCACACUUAAAGCAAUAGGUC [Fam1B.1 aminoacylation ribozyme variant]            0.592

# input Write down the reported self-aminoacylation of AUUCACCUAUGUCAUCGGGUG [Fam2.2 aminoacylation ribozyme variant] , test system: biotinyl-Trp-oxazolone.
# output 5.45

----------
System: biotinyl-Phe-oxazolone
method.description: self-aminoacylation, catalytic enhancement (BFO) (fold over background); higher = more active; k-Seq, kA / k0A0; sequences stand for … in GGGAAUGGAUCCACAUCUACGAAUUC…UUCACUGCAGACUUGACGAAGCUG
Fewer inactive variants are shown than the library holds.
The reader will find reported self-aminoacylation values listed item by item below.
// print number alone

Below, each entry is followed by its recorded self-aminoacylation result.
> print(dat)
                           sequence.content     measurement.type  observed.result
1  AUUACCCUGGUAAUCGGGUGA [Fam2.1 aminoacylation ribozyme variant]  self-aminoacylation             86.9
2  AUUAUCCCGGUCAUCGAGUGA [Fam2.1 aminoacylation ribozyme variant]  self-aminoacylation             61.2
3  CUACUGCAAACAAUUGGUCUG [Fam1A.1 aminoacylation ribozyme variant]  self-aminoacylation             1.18
4  AUUCACCUAUGUCAUUGGGUG [Fam2.2 aminoacylation ribozyme variant]  self-aminoacylation             9.21
5  CCACGCCUCAAGCAAUCGGUC [Fam1B.1 aminoacylation ribozyme variant]  self-aminoacylation             10.4
6  AAGUUUUCUAAUAGUCGCAAG [Fam3.1 aminoacylation ribozyme variant]  self-aminoacylation             2.64

# input For the sequence AAAUUUGUUAAUAGUCGCAAG [Fam3.1 aminoacylation ribozyme variant] , what self-aminoacylation is on record?
# output 2.69

# input For the sequence GAGUUAGCUAAUAGUCGCAAG [Fam3.1 aminoacylation ribozyme variant] , what self-aminoacylation is on record?
# output 2.62

# input For the sequence CGAUUUCAAACAAUCGGUCUG [Fam1A.1 aminoacylation ribozyme variant] , what self-aminoacylation is on record?
# output 16.4
